Measured values drawn from patent US20240287168A1 for this set.

- test.system: T1, Biotinylated Human VEGF165 (ACROBiosystems, Cat. No. VE5-H82Q0) (human, UniProt P15692-4 27-191, biotinylated (site not stated))
- T1 construct: Bought reagent; also called Human VEGF-Bio; human VEGF165-Bio
- T1 sequence (P15692 other isoform, or with tags, fused parts or gaps limits assumed): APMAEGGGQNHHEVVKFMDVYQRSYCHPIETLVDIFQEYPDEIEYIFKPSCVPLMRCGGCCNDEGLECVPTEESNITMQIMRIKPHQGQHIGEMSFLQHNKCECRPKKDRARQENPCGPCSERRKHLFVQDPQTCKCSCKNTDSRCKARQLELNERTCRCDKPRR
- assay.notes: BLI (Octet RED96e), method of Example 4, antibody on AHC sensor, 1:1 fit
pKd values by entry
// returns pKd (minus log10 of molar concentration), number only

Sample records with pKd:
Ab1910VE23 (expressed affinity-matured single domain antibody, clone YC43H2) (VHH) VHH: EVQLVESGGGLVQPGGSLRLSCAASGSTSDIVSMAWYRQAPGKERELVSAVFAEDWRYVEDSVKGRFTISRDNSKNTVYLQMNSLRAEDTAVYYCNVRLRIPHQWRTERLDYWGQGTLVTVSS    9.14
Ab1910VE18 (expressed single domain antibody with the Ab1910VE9 parent sequence, molecule before affinity maturation) (VHH, Its theoretical pI (7.5) differs from that of Ab1910VE9 (7), so it is kept apart from Ab1910VE9) VHH: EVQLVESGGGLVQPGGSLRLSCAASGSTSDIVSMAWYRQAPGKERELVSAVFAEDWRYVEDSVKGRFTISRDNSKNTVYLQMNSLRAEDTAVYYCNVRLRITDERRRERLDYWGQGTLVTVSS    8.65

What value of measured pKd is listed for Ab1910VE21 (expressed affinity-matured single domain antibody, clone YC41D1) (VHH) VHH: EVQLVESGGGLVQPGGSLRLSCAASGSTSDIVSMAWYRQAPGKERELVSAVLAPGWSYVEDSVKGRFTISRDNSKNTVYLQMNSLRAEDTAVYYCNVRLRITDERRRERLDYWGQGTLVTVSS ?
9.38

Fill in the blank: the reported pKd of Ab1910VE24 (expressed affinity-matured single domain antibody, clone YC43B1) (VHH) VHH: EVQLVESGGGLVQPGGSLRLSCAASGSTSDIVSMAWYRQAPGKERELVSAVFAEDWRYVEDSVKGRFTISRDNSKNTVYLQMNSLRAEDTAVYYCNVRLRITDWYSRERLDYWGQGTLVTVSS is ____.
9.20
